Please provide measured EC50 for the entries that follow.
System: CCRF-CEM
Experiment Description: Tested for the inhibitory activity of virus induced giant cell formation in HIV-1 infected CEM cells
Type: functional, cell-based
Applied Conditions: Homo sapiens
Answers are plain numbers, in nM.

>  <Smiles>
COCc1cnnn1[C@@H]1O[C@H](CO[Si](C)(C)C(C)(C)C)[C@@]2(OS(=O)(=O)C=C2N)[C@H]1O[Si](C)(C)C(C)(C)C

>  <Observed>
900

$$$$
>  <Smiles>
CC(C)(C)[Si](C)(C)OC[C@H]1O[C@@H](n2cc(C(N)=O)nn2)[C@H](O[Si](C)(C)C(C)(C)C)[C@]12OS(=O)(=O)C=C2N

>  <Observed>
900

$$$$
>  <Smiles>
Cc1cn([C@@H]2O[C@H](CO[Si](C)(C)C(C)(C)C)[C@@]3(OS(=O)(=O)C=C3N)[C@H]2O[Si](C)(C)C(C)(C)C)nn1

>  <Observed>
1400

$$$$
>  <Smiles>
CC(C)(C)[Si](C)(C)OC[C@H]1O[C@@H](n2cc(CCCCl)nn2)[C@H](O[Si](C)(C)C(C)(C)C)[C@]12OS(=O)(=O)C=C2N

>  <Observed>
660

$$$$

Qu. What measured EC50 goes with CNC(=O)c1cn([C@@H]2O[C@H](CO[Si](C)(C)C(C)(C)C)[C@@]3(OS(=O)(=O)C=C3N)[C@H]2O[Si](C)(C)C(C)(C)C)nn1 ?
Ans. 1200

Attribution: ChEMBL document CHEMBL1127787
